# System: RPMI-8226 leukemia
# protocol: NCI-60 one-dose screen, 48 h
# condition-info: 10 µM unless noted
About 83,000 compounds went through this panel and 20% of them were active in at least one assay; those are over-represented in the sample as a whole. Active and inactive are the calls of the source. How the source made its calls: active means growth percent below 10; inactive means the rest.
Entry note: the call must match one of Yes = active, No = inactive

molecule | answer-label
CCCCCCCCCCCCSC(=N)N | Yes

Assay result, entry CCCCC(CCc1ccc([N+](=O)[O-])cc1)(C(C)=O)C(=O)OCC (stereo not given) — outcome? No

Assay result, entry Oc1ccc(Cl)cc1Cc1cc(Cl)ccc1O — outcome? Yes

Assay result, entry Cc1ccc(/C=C2\CNC/C(=C\c3ccc(C)cc3)C2=O)cc1 — outcome? Yes

Assay result, entry CCN1CCCC(Nc2cc(C)nc(/N=C(/N)Nc3ccc(Cl)c(Cl)c3)n2)C1 (stereo not given) — outcome? Yes

Assay result, entry CN(C)c1ccc(/C=C/c2ccnc3ccccc23)cc1 — outcome? No

Assay result, entry CC(C)N=C(N)/N=C(\N)Nc1ccc2ccc3ccccc3c2c1 — outcome? Yes

Assay result, entry CC(C)c1ccc(Nc2n[nH]c(=S)s2)cc1 — outcome? No

Assay result, entry O=C(/C=C/c1ccccc1)c1ccccc1O — outcome? No

Assay result, entry O=[N+]([O-])/C(=C/c1ccccc1)c1ccccc1 — outcome? No
